The reported numbers originate from BigSolDB 2.1.

conditions: in gamma-butyrolactone, 283.15 K
reported.metric: solubility (mole fraction)
Answers are plain numbers.

// query Requested read-out: solubility (mole fraction). Entry: O=C1CCC(=O)O1
// result 0.197

* * *

conditions: in gamma-butyrolactone, 308.15 K
reported.metric: solubility (mole fraction)

// query I am curious: what solubility (mole fraction) value has been reported for O=C1CCC(=O)O1 ?
// result 0.307

* * *

conditions: in gamma-butyrolactone, 303.15 K
reported.metric: solubility (mole fraction)
Give bare numbers.

// query For the molecule O=C1CCC(=O)O1 , what solubility (mole fraction) is on record?
// result 0.283

* * *

conditions: in THF, 283.15 K
reported.metric: solubility (mole fraction)
Numbers only.

// query # query: solubility (mole fraction) of entry O=C1CCC(=O)O1
// result 0.071

* * *

conditions: in gamma-butyrolactone, 298.15 K
reported.metric: solubility (mole fraction)
Give bare numbers.

// query Recorded solubility (mole fraction) of O=C1CCC(=O)O1 , please.
// result 0.261

* * *

settings: in THF, 303.15 K
reported.metric: solubility (mole fraction)

// query Request the reported solubility (mole fraction) associated with O=C1CCC(=O)O1
// result 0.104

* * *

conditions: in THF, 298.15 K
reported.metric: solubility (mole fraction)

// query Which solubility (mole fraction) reading was recorded for the compound O=C1CCC(=O)O1 ?
// result 0.093

* * *

settings: in gamma-butyrolactone, 318.15 K
reported.metric: solubility (mole fraction)
Answers are plain numbers.

// query Which value of solubility (mole fraction) has been reported for O=C1CCC(=O)O1 in the records?
// result 0.354

* * *

conditions: in THF, 313.15 K
reported.metric: solubility (mole fraction)

// query Field request: solubility (mole fraction) | item: O=C1CCC(=O)O1
// result 0.129

* * *

conditions: in gamma-butyrolactone, 313.15 K
reported.metric: solubility (mole fraction)
One number for each entry.

// query What value of measured solubility (mole fraction) is listed for O=C1CCC(=O)O1 ?
// result 0.331

* * *

details: in THF, 318.15 K
reported.metric: solubility (mole fraction)
Numbers only.

// query May I ask what solubility (mole fraction) has been recorded for O=C1CCC(=O)O1 ?
// result 0.145

* * *

details: in gamma-butyrolactone, 323.15 K
reported.metric: solubility (mole fraction)

// query Find the recorded solubility (mole fraction) belonging to O=C1CCC(=O)O1 and report it.
// result 0.378

* * *

conditions: in gamma-butyrolactone, 293.15 K
reported.metric: solubility (mole fraction)
Numbers only.

// query Suppose we examine the compound O=C1CCC(=O)O1 ; what solubility (mole fraction) value has been reported?
// result 0.239
